Source of measurements: ChEMBL document CHEMBL1140859

tested on: Rattus norvegicus; test: Toxicity in Albino rat assessed as induction of gastric ulceration at 300 mg/kg, po twice a day after 2 hrs; assay type: organism-based, Stomach; set-up: dose 300 mg/kg, route oral; details: in vivo
measure: Activity

# compound, Activity
rows = [
    ("Cc1c(NC(=O)CSc2nnc(NC(=S)Nc3ccccc3)s2)c(=O)n(-c2ccccc2)n1C", "Non-toxic"),
    ("CCOC(=O)/C(C#N)=C1/SC(C(=O)Nc2c(C)n(C)n(-c3ccccc3)c2=O)=C(N)N1c1ccccc1", "Non-toxic"),
    ("Cc1c(NC(=O)CSc2nnc(N)s2)c(=O)n(-c2ccccc2)n1C", "Non-toxic"),
    ("Cc1c(NC(=O)c2sc(=S)n(-c3ccccc3)c2N)c(=O)n(-c2ccccc2)n1C", "Non-toxic"),
    ("CC(=O)Nc1nnc(SCC(=O)Nc2c(C)n(C)n(-c3ccccc3)c2=O)s1", "Non-toxic"),
]

Give one value of Activity per listed compound.
1. Cc1c(NC(=O)/C(C#N)=C2\SC=C(c3ccc(Cl)cc3)N2c2ccc(Cl)cc2)c(=O)n(-c2ccccc2)n1C
2. Cc1c(NC(=O)/C(C#N)=C2\SC=C(c3ccc(Cl)cc3)N2c2ccccc2)c(=O)n(-c2ccccc2)n1C
3. CCOC(=O)Nc1nnc(SCC(=O)Nc2c(C)n(C)n(-c3ccccc3)c2=O)s1
4. Cc1c(NC(=O)c2sc(=S)n(-c3ccccc3)c2NC(=S)Nc2ccccc2)c(=O)n(-c2ccccc2)n1C

["Non-toxic", "Non-toxic", "Non-toxic", "Non-toxic"]

Dear reader, for each entry below, please note its Activity.
1. Cc1c(NC(=O)/C(C#N)=C2\SCC(=O)N2c2ccccc2)c(=O)n(-c2ccccc2)n1C
2. O=C([O-])Cc1ccccc1Nc1c(Cl)cccc1Cl.[Na+] [DICLOFENAC SODIUM]
3. Cc1c(NC(=O)C2=C(N)N(c3ccccc3)C(=C(C#N)C#N)S2)c(=O)n(-c2ccccc2)n1C
4. Cc1c(NC(=O)c2sc(=S)n(-c3ccc(Cl)cc3)c2NC(=O)Nc2ccccc2)c(=O)n(-c2ccccc2)n1C

Non-toxic
Toxic
Non-toxic
Non-toxic
